target: αvβ5 integrin isolated from human placental extract (human, UniProt P06756 31-1048; P18084 24-799); test: phage panning on coated integrin
Sequence (P06756 31-1048, chain 1 of 2): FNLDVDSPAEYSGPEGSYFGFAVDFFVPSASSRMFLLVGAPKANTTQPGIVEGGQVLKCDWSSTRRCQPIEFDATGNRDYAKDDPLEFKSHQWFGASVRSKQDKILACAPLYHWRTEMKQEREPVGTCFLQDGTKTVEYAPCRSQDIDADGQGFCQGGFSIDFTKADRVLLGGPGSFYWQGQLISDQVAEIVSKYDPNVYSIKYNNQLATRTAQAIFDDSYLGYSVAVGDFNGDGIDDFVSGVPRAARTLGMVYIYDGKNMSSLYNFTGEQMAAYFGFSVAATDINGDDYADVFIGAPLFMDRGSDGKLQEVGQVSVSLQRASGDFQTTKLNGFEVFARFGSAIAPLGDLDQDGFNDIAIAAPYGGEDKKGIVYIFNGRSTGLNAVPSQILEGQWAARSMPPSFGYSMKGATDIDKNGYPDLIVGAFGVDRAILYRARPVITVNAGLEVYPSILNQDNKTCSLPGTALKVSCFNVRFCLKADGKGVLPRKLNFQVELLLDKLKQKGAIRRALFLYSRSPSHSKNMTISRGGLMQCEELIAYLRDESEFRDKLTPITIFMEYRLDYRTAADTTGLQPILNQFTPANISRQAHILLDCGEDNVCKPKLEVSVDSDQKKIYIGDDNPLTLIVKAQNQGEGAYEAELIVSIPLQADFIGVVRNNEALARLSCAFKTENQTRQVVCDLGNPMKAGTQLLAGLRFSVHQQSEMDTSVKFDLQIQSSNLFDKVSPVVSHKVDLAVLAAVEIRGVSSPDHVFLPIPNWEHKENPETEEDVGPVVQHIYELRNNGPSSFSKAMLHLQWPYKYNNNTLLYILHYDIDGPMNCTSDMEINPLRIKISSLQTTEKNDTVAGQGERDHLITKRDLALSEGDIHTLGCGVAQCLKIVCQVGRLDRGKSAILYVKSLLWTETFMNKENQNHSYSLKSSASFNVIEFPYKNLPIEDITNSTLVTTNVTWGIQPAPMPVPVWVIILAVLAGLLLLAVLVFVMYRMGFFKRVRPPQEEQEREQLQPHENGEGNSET
Sequence (P18084 24-799, chain 2 of 2): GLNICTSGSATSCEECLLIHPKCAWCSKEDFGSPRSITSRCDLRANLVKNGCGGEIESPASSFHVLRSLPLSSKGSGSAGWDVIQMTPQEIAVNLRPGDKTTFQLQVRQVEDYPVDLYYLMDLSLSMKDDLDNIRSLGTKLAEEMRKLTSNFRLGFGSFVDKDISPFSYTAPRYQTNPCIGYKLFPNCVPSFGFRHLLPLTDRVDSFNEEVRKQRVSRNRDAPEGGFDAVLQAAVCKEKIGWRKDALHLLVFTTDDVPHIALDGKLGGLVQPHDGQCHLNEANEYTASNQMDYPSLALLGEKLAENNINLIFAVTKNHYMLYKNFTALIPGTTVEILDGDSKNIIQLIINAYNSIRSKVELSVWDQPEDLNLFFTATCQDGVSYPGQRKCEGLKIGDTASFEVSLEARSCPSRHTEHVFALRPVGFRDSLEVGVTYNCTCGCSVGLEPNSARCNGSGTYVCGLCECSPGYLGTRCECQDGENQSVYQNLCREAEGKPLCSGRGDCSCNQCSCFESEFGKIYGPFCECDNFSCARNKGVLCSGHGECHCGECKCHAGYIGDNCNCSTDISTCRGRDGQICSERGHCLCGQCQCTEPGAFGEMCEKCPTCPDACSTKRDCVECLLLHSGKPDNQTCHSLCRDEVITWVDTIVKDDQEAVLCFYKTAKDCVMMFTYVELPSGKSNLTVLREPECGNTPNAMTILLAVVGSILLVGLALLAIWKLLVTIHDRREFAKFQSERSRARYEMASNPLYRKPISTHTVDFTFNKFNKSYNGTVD
Ends that are not written are not given here.
assay.metric: binding result

// solved cases for binding result follow
{"binder": "CGRRGDVPRC (on fuse 5 phage, fused to pIII) [CGRRGDVPRC phage]", "assay.metric": "binding result", "data.value": "binds"}
{"binder": "CEGRGDSFC (on fuse 5 phage, fused to pIII) [CEGRGDSFC phage]", "assay.metric": "binding result", "data.value": "binds"}
{"binder": "CEPRGDSFC (on fuse 5 phage, fused to pIII) [CEPRGDSFC phage]", "assay.metric": "binding result", "data.value": "binds"}
{"binder": "CDCRGDCLC (not fully specified (bridges); also: two disulfide bonds, pairing not given here, on fuse 5 phage, fused to pIII) [CDCRGDCLC phage]", "assay.metric": "binding result", "data.value": "binds"}
{"binder": "CIEIQHGKAC (on fuse 5 phage, fused to pIII) [CIEIQHGKAC phage]", "assay.metric": "binding result", "data.value": "binds"}

Next up:
GET /value?item= CVSRGDTPKC (on fuse 5 phage, fused to pIII) [CVSRGDTPKC phage] &field=binding result returns binds
